The origin of these recorded values is PubChem BioAssay AID651650.

measuredOn: Neuropilin-1 (Homo sapiens)
assayDetails: NRP-1 b1b2 CendR peptide binding inhibitors, dose response, biochemical, FP and AlphaScreen panel (AID 651650)
testSettings: NRP-1 b1b2 / RPARPAR peptide binding, FP or AlphaScreen; FP, run 1; individual panel run IC50
resultType: IC50

For Neuropilin-1 (Homo sapiens), give the measured IC50 of the entry CCOc1ccccc1C1CC(=O)NC2=C1C(=O)CC(C)(C)C2 (stereo unspecified)
> 95 µM

Further cases:
For Neuropilin-1 (Homo sapiens), give the measured IC50 of the entry NC(=O)c1c(NC(=O)C(=O)N2CCOCC2)sc2c1CCCC2
> 95 µM

For Neuropilin-1 (Homo sapiens), give the measured IC50 of the entry COc1ccccc1COc1ccc2c(C)c(CC(=O)O)c(=O)oc2c1C
> 95 µM

For Neuropilin-1 (Homo sapiens), give the measured IC50 of the entry Cc1c(CC(=O)O)c(=O)oc2cc(OCc3ccc(F)cc3Cl)ccc12
> 95 µM

For Neuropilin-1 (Homo sapiens), give the measured IC50 of the entry CC(C)NC(=O)c1c(CSc2ccccc2)noc1C(=O)NCc1ccccc1
> 95 µM

For Neuropilin-1 (Homo sapiens), give the measured IC50 of the entry CCOc1c2ccc(C(=O)NCCc3cccs3)cc2nn1CC
> 95 µM

----------
measuredOn: Neuropilin-1 (Homo sapiens)
assayDetails: NRP-1 b1b2 CendR peptide binding inhibitors, dose response, biochemical, FP and AlphaScreen panel (AID 651650)
testSettings: NRP-1 b1b2 / RPARPAR peptide binding, FP or AlphaScreen; AlphaScreen, run 1; individual panel run IC50
Reported IC50 is given for each of the following molecules.

Output measured IC50 for this item: COc1ccc(S(=O)(=O)N2CCCCC2)cc1NC(=O)c1c(F)cccc1Cl
> 100 µM

Output measured IC50 for this item: O=C1CSC(c2cn(-c3ccccc3)nc2-c2cccs2)N1CC1CCCO1 (configuration not stated)
44.4 µM

Output measured IC50 for this item: CCOC(=O)Cc1csc(NC(=O)CSc2ncnc3c2cnn3-c2ccccc2Cl)n1
> 100 µM

Further cases:
Output measured IC50 for this item: CCOC(=O)[C@]12CCCC=C1N(CCC1=CCCCC1)C(=O)[C@H](CC(=O)NCC13CC4CC(CC(C4)C1)C3)C2
> 100 µM

Output measured IC50 for this item: O=C(c1ccccn1)N1CCN(S(=O)(=O)c2ccccc2)CC1
27.8 µM

Output measured IC50 for this item: O=C(Nc1cc(C(F)(F)F)ccc1N1CCCC1)C1CC(=O)N(Cc2ccccc2)C1 (configuration not stated)
> 100 µM

----------
measuredOn: Neuropilin-1 (Homo sapiens)
assayDetails: NRP-1 b1b2 CendR peptide binding inhibitors, dose response, biochemical, FP and AlphaScreen panel (AID 651650)
testSettings: NRP-1 b1b2 / RPARPAR peptide binding, FP or AlphaScreen; AlphaScreen, mean of runs
Active and inactive are the calls of the source.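 Rule for the calls: active = mean IC50 below 20 µM in each of the two panels, so potent in both; inactive = the rest.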
Please state which outcome applies, choosing from active, inactive

For orientation, consider the following solved cases.
Which outcome did this test record for the compound COc1cc2oc(=O)ccc2cc1[C@@H](O)[C@@H]1OC(C)(C)OC1(C)C ?
inactive

Which outcome did this test record for the compound COC(=O)n1c(=O)oc2ccccc21 ?
inactive

Which outcome did this test record for the compound COc1ccc(Cn2c3ccc(OC)cc3c3nc4ccccc4nc32)cc1 ?
inactive

Further cases:
Which outcome did this test record for the compound Cn1cnc2cc(NC(=O)c3ccco3)ccc21 ?
active
